Quick reference: tissue uptake at 2 h of the listed items.
Experiment: Biodistribution in mice bearing PC-3 xenografts
Type: in vivo, Balb/c nu/nu mice
Details: Balb/c nu/nu, mouse, kidneys, iv, 100 pmol, total radioactivity, PC-3 xenografted Balb/c nu/nu mice, iv 100 pmol; 2 h pi; mean ± SD, n = 4; read-out: Kidneys activity uptake
property_measured: tissue uptake at 2 h (%ID/g)

{"compound": "CC(C)C[C@H](NC(=O)C[C@H](O)[C@H](CC(C)C)NC(=O)[C@H](Cc1c[nH]cn1)NC(=O)CN(C)C(=O)[C@@H](NC(=O)[C@H](C)NC(=O)[C@](C)(Cc1c[nH]c2ccccc12)NC(=O)[C@H](CCC(N)=O)NC(=O)[C@@H](Cc1ccccc1)NC(=O)CN1CCC(NC(=O)COCCOCCNC(=O)CN2CCN(CC(=O)O)CCN(CC(=O)O)CCN(CC(=O)O)CC2)CC1)C(C)C)C(N)=O [[^177Lu]Lu-PKB3, metal not drawn]", "property_measured": "tissue uptake at 2 h", "val": 7.4}
{"compound": "CC(C)C[C@H](NC(=O)C[C@H](O)[C@H](CC(C)C)NC(=O)[C@H](Cc1c[nH]cn1)NC(=O)CN(C)C(=O)[C@@H](NC(=O)[C@H](C)NC(=O)[C@](C)(Cc1c[nH]c2ccccc12)NC(=O)[C@H](CCC(N)=O)NC(=O)[C@@H](Cc1ccccc1)NC(=O)CN1CCC(NC(=O)COCCOCCNC(=O)CCC(C(=O)O)N2CCN(CC(=O)O)CCN(CC(=O)O)CCN(CC(=O)O)CC2)CC1)C(C)C)C(N)=O (some centres unmarked) [[^177Lu]Lu-PKB2, metal not drawn]", "property_measured": "tissue uptake at 2 h", "val": 8.9}

###

Quick reference: tissue uptake dose at 4 h of the listed items.
Assay: Biodistribution in mice bearing PC-3 xenografts
Type: in vivo, Balb/c nu/nu mice
Conditions: mouse, total radioactivity; gastrointestinal tract with content; PC-3 xenografted Balb/c nu/nu mice, iv 100 pmol; 4 h pi; mean ± SD, n = 4; read-out: GI activity uptake
Description: Each mouse was xenografted with a subcutaneous injection of 8 × 10⁶ PC-3 cells in the right hind leg. After approximately 4 weeks, the animals were injected into the tail vein with 100 µL of radiopeptide (100 pmol—110–130 kBq, diluted in PBS/BSA). Four animals were used for each time point per peptide. […] At the determined time points, the mice were euthanized, organs were collected and weighed, and their activity content was measured in the gamma counter. […]

{"molecule": "CC(C)C[C@H](NC(=O)C[C@H](O)[C@H](CC(C)C)NC(=O)[C@H](Cc1c[nH]cn1)NC(=O)CN(C)C(=O)[C@@H](NC(=O)[C@H](C)NC(=O)[C@](C)(Cc1c[nH]c2ccccc12)NC(=O)[C@H](CCC(N)=O)NC(=O)[C@@H](Cc1ccccc1)NC(=O)CN1CCC(NC(=O)COCCOCCNC(=O)CN2CCN(CC(=O)O)CCN(CC(=O)O)CCN(CC(=O)O)CC2)CC1)C(C)C)C(N)=O [[^177Lu]Lu-PKB3, metal not drawn]", "tissue uptake dose at 4 h, %ID": 0.4}
{"molecule": "CC(C)C[C@H](NC(=O)C[C@H](O)[C@H](CC(C)C)NC(=O)[C@H](Cc1c[nH]cn1)NC(=O)CN(C)C(=O)[C@@H](NC(=O)[C@H](C)NC(=O)[C@](C)(Cc1c[nH]c2ccccc12)NC(=O)[C@H](CCC(N)=O)NC(=O)[C@@H](Cc1ccccc1)NC(=O)CN1CCC(NC(=O)COCCOCCNC(=O)CCC(C(=O)O)N2CCN(CC(=O)O)CCN(CC(=O)O)CCN(CC(=O)O)CC2)CC1)C(C)C)C(N)=O (some centres unmarked) [[^177Lu]Lu-PKB2, metal not drawn]", "tissue uptake dose at 4 h, %ID": 0.7}
